assay: soluble fraction after stress (log2 fold change); higher = more stays soluble; pooled small domains, quantitative proteomics; conditions: stress: 50 degC
Param threshold (-0.7) applies to soluble fraction (log2); output met when value >= threshold, not met when value < threshold.

Problem: Check the entry HMFTEPQKLVKRILNMLGHRYDDASIQARSDFQASNNYHKVQVKKKRESMEEYTAWLEEMYDAYRIN : does soluble fraction (log2) equal or exceed -0.7?
Solution: not met

Problem: Could you please find out whether HMNIEDFKDKVKELKQYTYQELVEDVKLKTDRADVILPASKIYLEAMQQAKVDSIIVPKVGLAEGVAR has soluble fraction (log2) that meets -0.7 or exceeds it?
Solution: met

Problem: Dear colleague, could you confirm whether HMSSVHTMEVKSTTQIKVLDENKNLSSYYSMKNPVSFNYRLFFLNQDELKKLQEDLKTNNDIQSIDIKYA has soluble fraction (log2) at or above -0.7?
Solution: not met

Problem: hey, is soluble fraction (log2) for this one >= -0.7? HMSLETRRYQLPRTDAQTASGLLRSLSGLPGVREVNLSGEGVAYLKVDSKGFDEQNVIKLLAGE
Solution: met

Problem: For this sequence, is measured soluble fraction (log2) -0.7 or higher? HMGNLEENFRLKAGTEDGAWEFIRYHLGKLPVVNESNGTAIVNAERQAFLLFDRMVAFHIQRGVMVPLSAP
Solution: met

Problem: Hello, I need to know if HMVWTAGEVVERIRERVGHPATIRELMQVLTIPPEDRHRFRRRIMQLVEAGELIRIRGNRYGLAD has measured soluble fraction (log2) not below -0.7. Thanks!
Solution: not met

Problem: Quick check, soluble fraction (log2) >= -0.7? HMTPIELIEKTIELIENERKVQKLQQKELALKADIPFPTYKDFIYKKRASLENILKLFIALRLF
Solution: met

Problem: Is it the case that HMKTGNIIAVSLVWKGKYYMIRMFFPSAARPSRADVQTEIEKVYPGSKLSSFSVSDYEPGQPLLQV has soluble fraction (log2) reaching or exceeding -0.7?
Solution: not met

Problem: hey, is soluble fraction (log2) for this one >= -0.7? HMEAYMVPNVKNKTLNEAQQALSNQKLKGLVIDSSYVKGVPDGMVLDQNPAGGARVKEGRTIYLTVTTS
Solution: met

Problem: Please check the record HMSTSRAEIIAFLKSNPSSEYKHELETKLDEMDWAEAVKGNSEESFLAYKQRQPNGTHNGEADEKLKVLLV and state if its soluble fraction (log2) is at or above -0.7.
Solution: met

Problem: Confirm if soluble fraction (log2) reported for the sequence HMDNPLSQQEKRILQLISLGKTNQEIADILYLSNGTVRNYISSILNKLSANNRVEAARIAEEHGW is -0.7 or above.
Solution: not met

Problem: hey, is soluble fraction (log2) for this one >= -0.7? HMTKRTEPSILQNFDTEIAELIAKNRGISIMDALRIFLASKTHEMLENDEMKLWYFSPLAVFDMWENE
Solution: met

Problem: Hello, I need to know if HMGVDASVDSKLDLLSQVLDSDQVKEQLPEAVLEQLAQNLDRWRSLHEESELQDDDIAELNRLLGLFGLG has measured soluble fraction (log2) not below -0.7. Thanks!
Solution: met

Problem: Say whether HMNVAVGNSKLVGVAGERAYFVNGVGAAARTLSLQVGDALPTGEKVRRIERDGVTMTGASGDVRLSVLP shows soluble fraction (log2) of -0.7 or more.
Solution: met

Problem: Hi, just wondering whether HMTDLALHIGKTLRELRQRRGWSLDKTAQATGVSKAMLGQIERGESSPTVVTLWRISSGLQASFSEFLPP shows soluble fraction (log2) of -0.7 or higher.
Solution: not met

Problem: Exam item: decide whether the reported soluble fraction (log2) for HMQFHQDNYALEFIRDLQPVDGAIILSRFKQFDLVELEKAKKIKFSDEHMAWTLYDYDIKKIN is at least -0.7.
Solution: not met

Problem: Decide: is the reported value of soluble fraction (log2) for HMTKQRSAIMNLLAERNTPLTAEEIGEAIAPSYPKLALSTVYRNLELFTNAGLLEKSFFQDGITRYSLTK equal to or greater than -0.7?
Solution: met

All values here come from the domain aggregation screens of Martell et al. (2025).
